tested on: Mycobacterium tuberculosis H37Rv growth, 7H9 medium; assay: M. tuberculosis growth inhibition, dose response, 7H9 medium, purified and synthesized samples, set 9 (AID 602435); conditions: measured here: IC50 growth inhibition replicates
Results filed as inconclusive are left out.
Assign labels as follows, please: TRUE for IC50 below 8 µM; FALSE for IC50 equal to or exceeding 8 µM.

{"COMPOUND": "Cc1cccc(N2CCN(C(=O)c3ccc(CNc4c(N5CCC(C)CC5)c(=O)c4=O)cc3)CC2)c1C", "LABEL_VALUE": "FALSE"}

Consider the additional compound presented here.
input: Field: below-cutoff. Rule: recorded IC50 strictly less than 8 µM. Subject: `CCOC(=O)CSc1ncnc2c1cnn2-c1ccccc1`
output: FALSE

----------
log10(IC50) values, listed per item
tested on: Mycobacterium tuberculosis H37Rv growth, 7H9 medium; experiment: M. tuberculosis growth inhibition, dose response, 7H9 medium, purified and synthesized samples, set 9 (AID 602435); details: measured here: IC50 growth inhibition replicates
Results filed as inconclusive are left out.
Scale: log10; quantity: IC50; unit before log: µM

{"COMPOUND": "CC(C)CCNC(=O)CSc1nc2c(c(=O)[nH]1)CCCC2", "log10(IC50)": 0.65}
{"COMPOUND": "COc1ccc(N2CCN(C(=O)c3ccc(CNc4c(N5CCCC(C)C5)c(=O)c4=O)cc3)CC2)cc1 (stereo not given)", "log10(IC50)": 1.45}
{"COMPOUND": "Cc1cccc(N2CCN(C(=O)c3ccc(CNc4c(N5CCC(C)CC5)c(=O)c4=O)cc3)CC2C)c1 (stereo not given)", "log10(IC50)": 1.43}
{"COMPOUND": "O=C(NCc1ccc(C(=O)N2CCC(c3ccccc3)CC2)cc1)Nc1ccc(Cl)cc1", "log10(IC50)": 1.87}
{"COMPOUND": "CC1CCCN(C(=O)C2CCC(CNc3c(N4CCCCC4)c(=O)c3=O)CC2)C1 (stereo not given)", "log10(IC50)": 1.42}

input: Find the recorded log10(IC50) belonging to `O=C(CSc1nc2c(c(=O)[nH]1)CCCC2)NC1CCCCC1` and report it.
output: 0.29

input: Entry `CC(=O)c1ccc(NC(=O)c2ccc(CNc3c(N4CCOCC4)c(=O)c3=O)cc2)cc1` has what log10(IC50)?
output: 1.70

input: Would you kindly share the measured log10(IC50) for `CC(C)CCNC(=O)CSc1nc2c(c(=O)[nH]1)CCCCC2` ?
output: 2.00

input: Look at this compound and give its reported log10(IC50). CC1CCCN(c2c(NCc3ccc(C(=O)N4CC=C(c5ccccc5)CC4)cc3)c(=O)c2=O)C1 (stereo not given)
output: 0.88

input: Fill in the blank: the reported log10(IC50) of `CCOC(=O)CSc1ncnc2c1cnn2-c1ccc(C)cc1C` is ____.
output: 0.38

----------
system: Mycobacterium tuberculosis H37Rv growth, 7H9 medium; assay: M. tuberculosis growth inhibition, dose response, 7H9 medium, purified and synthesized samples, set 9 (AID 602435); settings: measured here: IC50 growth inhibition replicates
Records with an inconclusive call do not appear.
OUTCOME_MEASURE: log10(IC50) (log10 of the value in µM)
Hello, just confirming the data are log10 of IC50 with units of µM.

// known answers, use as guide
{"COMPOUND": "O=C(NCc1ccc(C(=O)N2CCC(c3ccccc3)CC2)cc1)NC1CCCCC1", "ASSAY_TARGET": "Mycobacterium tuberculosis H37Rv growth, 7H9 medium", "OUTCOME_MEASURE": "log10(IC50)", "OBSERVED_MEASUREMENT": 1.84}
{"COMPOUND": "O=C(c1ccc(CNc2c(N3CCCC3)c(=O)c2=O)cc1)N1CCC(c2ccccc2)CC1", "ASSAY_TARGET": "Mycobacterium tuberculosis H37Rv growth, 7H9 medium", "OUTCOME_MEASURE": "log10(IC50)", "OBSERVED_MEASUREMENT": 1.90}
{"COMPOUND": "O=C(c1ccc(CNc2c(N3CCCC3)c(=O)c2=O)cc1)N1CCc2ccccc2C1", "ASSAY_TARGET": "Mycobacterium tuberculosis H37Rv growth, 7H9 medium", "OUTCOME_MEASURE": "log10(IC50)", "OBSERVED_MEASUREMENT": 0.70}

Let us examine a further case.
input: Reported log10(IC50) for `O=C(c1ccc(CNc2c(N3CCOCC3)c(=O)c2=O)cc1)N1CC=C(c2ccccc2)CC1` : what is it?
output: -0.02
